System: healthy human lung cells (MRC9)
Assay: CellTiter-Blue cell viability, MRC9
Type: cell-based
Details: non-cancerous, 72 hours
Observation Type: pIC50
The read-out pIC50 is expressed as -log10 of concentration in moles per litre.

For orientation, consider the following solved cases.
Smiles Notation	pIC50
O=S(=O)(c1c(F)c(F)c(F)c(F)c1F)N(Cc1ncccc1C(F)(F)F)C1CC1	5.08
O=S(=O)(c1c(F)c(F)c(F)c(F)c1F)N(Cc1ccoc1)C1CC1	4.66
O=S(=O)(c1c(F)c(F)c(F)c(F)c1F)N(Cc1cccc(F)c1)C1CC1	5.05
O=S(=O)(c1c(F)c(F)c(F)c(F)c1F)N(Cc1ccccc1)Cc1ccc(F)cc1	4.84

*Q* Request the reported pIC50 associated with N#Cc1ccc(CN(C2CC2)S(=O)(=O)c2c(F)c(F)c(F)c(F)c2F)cc1
*A* 5.11

*Q* Thanks! And O=S(=O)(c1c(F)c(F)c(F)c(F)c1F)N(Cc1ccc(F)cn1)C1CC1 ?
*A* 4.60

*Q* Thanks! And Nc1cccc(-c2ccc(CN(C3CC3)S(=O)(=O)c3c(F)c(F)c(F)c(F)c3F)cc2)c1 ?
*A* 4.80

*Q* Thanks! And O=S(=O)(c1c(F)c(F)c(F)c(F)c1F)N(Cc1ccc(F)cc1F)C1CC1 ?
*A* 4.87

*Q* Thanks! And CC(C)N(Cc1ccccc1F)S(=O)(=O)c1c(F)c(F)c(F)c(F)c1F ?
*A* 4.82
